- TARGET_UNDER_TEST: Cytosolic purine 5'-nucleotidase (Homo sapiens, UniProt P49902)
- Sequence (P49902 whole entry, the tested form may be a part): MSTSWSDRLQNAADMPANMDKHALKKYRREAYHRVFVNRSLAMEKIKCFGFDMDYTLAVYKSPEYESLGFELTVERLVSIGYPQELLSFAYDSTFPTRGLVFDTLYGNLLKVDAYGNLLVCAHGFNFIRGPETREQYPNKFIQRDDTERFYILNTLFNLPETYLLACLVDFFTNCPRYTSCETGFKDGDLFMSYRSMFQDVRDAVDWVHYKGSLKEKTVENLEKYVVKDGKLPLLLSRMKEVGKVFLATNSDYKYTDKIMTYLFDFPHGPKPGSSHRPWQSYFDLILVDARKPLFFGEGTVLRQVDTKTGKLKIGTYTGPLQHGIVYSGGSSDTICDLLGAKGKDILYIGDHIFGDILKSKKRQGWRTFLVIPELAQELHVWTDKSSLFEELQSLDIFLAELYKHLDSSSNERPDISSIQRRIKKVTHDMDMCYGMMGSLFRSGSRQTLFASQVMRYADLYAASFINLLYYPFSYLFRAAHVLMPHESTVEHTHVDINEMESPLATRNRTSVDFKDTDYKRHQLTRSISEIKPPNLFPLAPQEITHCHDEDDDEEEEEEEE
- MEASUREMENT_PROTOCOL: Inhibition of recombinant N-terminal truncated human cytosolic 5'-nucleotidase-2 assessed as inhibition of inosine 5'-monophosphate hydrolysis by steady state kinetics with HPLC quantification
RECORDED_ENDPOINT: Ki (µM)
Number in µM, nothing else.

Request: Reported Ki for O=C1c2ccc(S(=O)(=O)O)cc2C(=O)c2ccc(S(=O)(=O)O)cc21 : what is it?
Response: 2000

###

- TARGET_UNDER_TEST: Cytosolic purine 5'-nucleotidase (Homo sapiens, UniProt P49902)
- MEASUREMENT_PROTOCOL: Inhibition of recombinant N-terminal truncated human cytosolic 5'-nucleotidase-2 assessed as inhibition of inosine 5'-monophosphate hydrolysis at 1 mM by rapid green malachite assay
For each entry below, report its inhibition value.
Number in %, nothing else.

Request: Reported inhibition for c1ccc(N2CCNCC2)nc1 : what is it?
Response: 0.5

Request: Param item: Oc1ccc2ccc(O)cc2c1
Response: 40

Request: Param item: Oc1ccc(-c2ccc(O)cc2)cc1
Response: 8

Request: Param item: OCc1nc2ccccc2[nH]1
Response: 11

Request: Param item: Nc1ccc(-c2ccc(N)c(O)c2)cc1O
Response: 23

Request: Param item: O=C(Nc1ncnc2nc[nH]c12)c1ccccc1
Response: 28

Request: Param item: Nc1ccccc1-c1ccccc1
Response: 36

Request: Param item: c1ccc(CNc2ncnc3[nH]cnc23)cc1
Response: 20

Request: Param item: Oc1ccccc1-c1ccccc1
Response: 19

Request: Param item: OC(c1ccccc1)c1ccccc1
Response: 2

Request: Param item: Nc1nc(Cl)c2nc[nH]c2n1
Response: 23

Request: Param item: c1ccc(-c2c[nH]cn2)cc1
Response: 36

Request: Param item: Nc1[nH]cnc2ncnc1-2
Response: 19

Request: Param item: Nc1cccc2cnccc12
Response: 30
